system.name: T1, macaca fascicularis (mf) PRLR.mmh (soluble monomeric monkey PRLR) (Macaca fascicularis)
T1 construct: called soluble monomeric PRLR protein
T1 chain: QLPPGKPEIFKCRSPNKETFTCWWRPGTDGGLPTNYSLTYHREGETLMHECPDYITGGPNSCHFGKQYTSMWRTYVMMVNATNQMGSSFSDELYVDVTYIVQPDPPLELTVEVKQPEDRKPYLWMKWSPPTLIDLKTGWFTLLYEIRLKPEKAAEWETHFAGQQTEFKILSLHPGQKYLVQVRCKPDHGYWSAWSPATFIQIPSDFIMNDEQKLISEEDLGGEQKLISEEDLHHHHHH
experimental.protocol: SPR Biacore, 25 C, mAb capture
Procedure: Measurements were conducted on a T200 Biacore instrument. Kinetic association (kₐ) and dissociation (kd) rate constants were determined by processing and fitting the data to a 1:1 binding model using Scrubber 2.0 curve fitting software.
measured.quantity: Kd (nM)
Express the result in nM but write the number alone.

- binder: "H1H6801P (antibody, human IgG1, V domains shown, Human IgG1 Fc (H1H)) VH: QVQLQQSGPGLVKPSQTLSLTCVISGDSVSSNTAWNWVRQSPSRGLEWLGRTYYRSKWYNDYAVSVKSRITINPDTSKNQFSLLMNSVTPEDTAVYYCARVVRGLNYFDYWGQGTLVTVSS VL: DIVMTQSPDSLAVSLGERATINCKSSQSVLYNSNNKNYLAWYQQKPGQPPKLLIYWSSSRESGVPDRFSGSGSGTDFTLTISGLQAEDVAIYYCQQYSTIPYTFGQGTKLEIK"
  Kd [nM]: 1.88
- binder: "H1H6800P (antibody, human IgG1, V domains shown, Human IgG1 Fc (H1H)) VH: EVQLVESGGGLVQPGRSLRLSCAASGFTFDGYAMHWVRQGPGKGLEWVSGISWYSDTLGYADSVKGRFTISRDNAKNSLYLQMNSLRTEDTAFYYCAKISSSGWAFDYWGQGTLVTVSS VL: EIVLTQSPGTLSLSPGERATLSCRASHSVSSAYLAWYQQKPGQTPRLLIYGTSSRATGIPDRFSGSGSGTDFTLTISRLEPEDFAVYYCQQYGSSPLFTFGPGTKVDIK"
  Kd [nM]: 1.25
- binder: "H1H6774P (antibody, human IgG1, V domains shown, Human IgG1 Fc (H1H)) VH: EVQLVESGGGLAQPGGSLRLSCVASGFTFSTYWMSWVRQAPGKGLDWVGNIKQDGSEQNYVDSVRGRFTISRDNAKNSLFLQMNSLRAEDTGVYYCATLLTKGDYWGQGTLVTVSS VL: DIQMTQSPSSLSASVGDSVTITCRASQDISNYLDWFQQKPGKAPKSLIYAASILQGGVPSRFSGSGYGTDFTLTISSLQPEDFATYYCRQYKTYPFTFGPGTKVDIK"
  Kd [nM]: 1.77

Moving on to another binder below.
The reported value for H1H6976N (antibody, human IgG1, V domains shown, Tested with human IgG1 Fc (H1H); also called H2M6976N) VH: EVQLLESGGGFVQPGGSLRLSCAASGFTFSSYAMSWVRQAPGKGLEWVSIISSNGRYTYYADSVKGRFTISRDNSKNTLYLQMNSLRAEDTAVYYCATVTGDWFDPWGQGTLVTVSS VL: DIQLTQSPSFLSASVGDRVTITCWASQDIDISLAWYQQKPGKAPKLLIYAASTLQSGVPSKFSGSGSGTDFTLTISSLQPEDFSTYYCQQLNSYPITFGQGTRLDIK in terms of Kd is 1.75
